system: HeLa; test: Antiproliferative activity against human HeLa cells assessed as cell viability after 72 hrs by SRB assay; assay type: functional, cell-based
endpoint: pIC50
// pIC50: -log10(molar conc.)

Some molecules with known pIC50 results, for comparison:
| molecule | observed measurement |
| --- | --- |
| CC[C@H]1O[C@@H]2O[C@H](/C=C/C=C/C=C/c3oc(=O)c4c(c3C)O[C@H](C)C4(C)C)[C@H](O)[C@]2(C)[C@@]1(C)O | 4.32 |
| CC[C@H]1O[C@@H]2O[C@H](/C=C/C=C/C=C/c3oc(=O)cc(OCC=C(C)C)c3C)[C@H](O)[C@]2(C)[C@@]1(C)O | 4.32 |
| COc1cc([C@@H]2c3cc4c(cc3[C@@H](O[C@@H]3O[C@@H]5CO[C@@H](C)O[C@H]5[C@H](O)[C@H]3O)[C@H]3COC(=O)[C@H]23)OCO4)cc(OC)c1O [ETOPOSIDE] | 5.49 |

Read the next record carefully.
Query for HeLa: what pIC50 does the record show for `COC(=O)/C(C)=C/COc1cc(=O)oc(/C=C/C=C/C=C/[C@H]2O[C@H]3O[C@H](C)[C@](C)(O)[C@@]3(C)[C@H]2O)c1C` ?
4.96
